These data points were gathered from patent US20230117324A1.

# measuredOn: MAGL (recombinant wild-type) (Homo sapiens, UniProt Q99685)
# Sequence (Q99685 whole entry, species assumed): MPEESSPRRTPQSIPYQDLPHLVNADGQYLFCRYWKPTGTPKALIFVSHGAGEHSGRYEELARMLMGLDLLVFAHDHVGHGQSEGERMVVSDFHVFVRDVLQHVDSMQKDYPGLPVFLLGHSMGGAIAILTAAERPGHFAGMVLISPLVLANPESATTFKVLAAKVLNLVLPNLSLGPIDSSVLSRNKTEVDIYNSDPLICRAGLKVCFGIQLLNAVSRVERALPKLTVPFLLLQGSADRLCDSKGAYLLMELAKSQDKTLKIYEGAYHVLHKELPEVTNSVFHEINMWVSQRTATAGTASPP
# experimentalProtocol: MAGL inhibition, 4-NPA assay (hydrolysis of 4-nitrophenylacetate, absorbance at 405 nm)
# conditionSummary: 4-NPA assay (footnote [a]: values not marked [b])
pIC50: −log10 of the molar value.
pIC50 of 8 or higher: yes (1). Under 8: no (0).

# compound, labelValue
data = [
    ("O=C1CO[C@H]2CCN(C(=O)N3CCN([C@H](c4ccccc4)c4ccc(Cl)cc4)CC3)C[C@H]2N1 (racemic) [Example 10]", "yes (1)"),
    ("CCc1cncc(C2CCN(C(=O)N3CC[C@@H]4OCC(=O)N[C@@H]4C3)CC2)c1 (single isomer, unassigned) [Example 40]", "no (0)"),
    ("N#C/C(=C\\N1CCN(C(=O)N2CC[C@@H]3OCC(=O)N[C@@H]3C2)CC1)c1ccccc1 (racemic) [Example 18]", "no (0)"),
    ("O=C1CO[C@H]2CCN(C(=O)N3CCC(C(F)(F)c4ccc(Cl)cc4)CC3)C[C@H]2N1 (single isomer, unassigned) [Example 37]", "no (0)"),
    ("Cc1cccc(C(c2ccccc2)C2CCN(C(=O)N3CC[C@@H]4OCC(=O)N[C@@H]4C3)CC2)c1 (single isomer, unassigned) [Example 80]", "yes (1)"),
    ("Cn1nc(C2CCN(C(=O)N3CC[C@@H]4OCC(=O)N[C@@H]4C3)CC2)c2ccc(Cl)cc21 (single isomer, unassigned) [Example 42]", "no (0)"),
    ("C[C@@H](Oc1ccc(F)cc1Cl)C1CCN(C(=O)N2CC[C@@H]3OCC(=O)N[C@@H]3C2)CC1 (single isomer, unassigned) [Example 34]", "yes (1)"),
]
